- test.system: T1, SNTG2, Q9NY99
- T1 sequence (Q9NY99 68-166, limits assumed, looked up): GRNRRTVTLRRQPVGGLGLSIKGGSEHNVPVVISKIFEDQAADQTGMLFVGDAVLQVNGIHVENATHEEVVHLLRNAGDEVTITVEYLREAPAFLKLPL
- method.notes: holdup assay
- Parameters: key: below the threshold = too weak to quantify, mostly under pKd 3.1 to 4
- measurement.context: plain residues with an end cap or a label only (N-terminal biotin on a linker: ado-ado)
quantity.kind: pKd

binder | recorded.measurement
TPPAAKKSRI [BAZ1A, Q9NRL2] | below the threshold
PDGQCTVTEV [RNF146, Q9NTX7] | 3.98
LPHGHSTTRV [NLGN4X, Q8N0W4] | 4
VYPNAKVELV [PDLIM4_iso2, P50479] | 3.48
QKNRKAQEDL [CES3, Q6UWW8] | below the threshold
EALLQMESVA [CAVIN3, Q969G5] | below the threshold
QGPVETESVV [SLC45A4, Q5BKX6] | 4.34
PEYLGLDVPV [ERBB2, P04626] | below the threshold
YLEPVLSSEL [ATP2A2, P16615;P16615-3] | below the threshold
PAPSSGKDYV [CLDN1, O95832] | below the threshold
KSGKQTMLVV [TRIM29, Q14134;Q14134-2] | below the threshold
KKMPSIESDV [GRIN2A, Q12879] | 4.41
ETQVTAETVI [TMEM225B, P0DP42] | 4.15
EKKTLIGIKL [GOT1L1, Q8NHS2] | below the threshold
GSGAVEMESV [AQP6, Q13520] | below the threshold
SNAGNTATKA [NOSTRIN, Q8IVI9] | below the threshold
EVEEFPETSV [TRPV3, Q8NET8] | 5.05
QSPANIYYKV [EFNB1, P52799] | below the threshold
IKAIVDLTGL [TRAF2, Q12933] | below the threshold
CLREWCDAFL [BANF1, O75531] | below the threshold
YYKRPVQEWV [MMP24, Q9Y5R2] | below the threshold
QHKTQLQTLI [BPIFA2, Q96DR5] | 3.63
NHSSSPETTA [TRMT13, Q9NUP7] | below the threshold
LPHPHSTTRV [NLGN2, Q8NFZ4] | 4.16
FNSYSLTGYV [CLDN2, P57739] | below the threshold
VNKSKLLTDV [KCNA1, Q09470] | below the threshold
TASPAKETSF [SLC2A7, Q6PXP3] | below the threshold
RRLPGKETMA [GRIK2, Q13002] | below the threshold
PLSPEQPTKL [TRIM50, Q86XT4] | below the threshold
DDPSTAETVL [ABCA7, Q8IZY2] | 4.19
QMNQTLPVQV [EPHB3, P54753] | below the threshold
MLSKQSESAI [FLVCR1, Q9Y5Y0] | 3.81
